- System: KM12 colon
- Test Protocol: NCI tumour cell line growth inhibition, 48 h
Experimental Readout: GI50

Examples from the recorded data:
Smiles Text	GI50
OCCN(CCO)N=Nc1ccc(-c2nc3ccccc3[nH]2)cc1	16.3 µM
COc1ccc(CN2C(=O)/C(=C\c3cc(OC)c(OC)c(OC)c3)c3cc(OC)ccc32)cc1	2.04 µM
CN1CCN(Cc2ccc(-c3cc4ncnc(Nc5ccc(OCc6cccc(F)c6)c(Cl)c5)c4s3)o2)CC1	4.44 µM
O=C(Nc1ccc(S(=O)(=O)Nc2nccs2)cc1)c1cccnc1Nc1cccc(Cl)c1	10.3 µM

Now turn to the next compound.
Given CC1=C(C)C(=O)c2c(c(C(=O)c3ccccc3)c3nc4ccccc4n3c2C)C1=O , state its recorded GI50.
> 100 µM
